Test system: johnsongrass (Sorghum halepense, SORHA)
method description: Pre-emerge test, greenhouse herbicide activity screening
Assay type: in vivo
protocol conditions: pre-emerge, 63 g ai/ha, 14 days after application, scale 0-100
Experimental: A standard greenhouse herbicide activity screening system was used to evaluate the herbicidal efficacy and crop safety of these test compounds. […] At 14 days after application of the test materials, phytotoxicity ratings were recorded. […]
Parameter: phytotoxicity rating SORHA. Scope: all listed entries.
// keep it numeric: no unit symbol after the value

{"molecule": "COc1c(Cl)cc(F)c(-n2c(=O)cc(C(F)(F)F)n(N)c2=O)c1NC(=O)C=Cc1ccccc1 [2-185]", "phytotoxicity rating SORHA": 20}
{"molecule": "Cn1c(C(F)(F)F)cc(=O)n(-c2ccc(C#N)cc2NC(=O)c2ccc3ccccc3c2)c1=O [2-140]", "phytotoxicity rating SORHA": 10}
{"molecule": "CCOC(=O)CSCC(=O)Nc1c(OC)c(Cl)cc(F)c1-n1c(=O)cc(C(F)(F)F)n(C)c1=O [2-170]", "phytotoxicity rating SORHA": 20}

INPUT: Form field: phytotoxicity rating SORHA recorded for Cn1c(C(F)(F)F)cc(=O)n(-c2ccc(Cl)cc2NC(=O)C=Cc2ccccc2)c1=O [2-137] with johnsongrass (Sorghum halepense, SORHA) (enter value)
OUTPUT: 0

INPUT: Form field: phytotoxicity rating SORHA recorded for COc1c(Cl)cc(F)c(-n2c(=O)cc(C(F)(F)F)n(C)c2=O)c1NC(=O)c1ccc2cccc(F)c2c1 [2-161] with johnsongrass (Sorghum halepense, SORHA) (enter value)
OUTPUT: 0

INPUT: Form field: phytotoxicity rating SORHA recorded for CCOC(=O)C(C)SCC(=O)Nc1c(OC)c(Cl)cc(F)c1-n1c(=O)cc(C(F)(F)F)n(C)c1=O (stereo not drawn) [2-171] with johnsongrass (Sorghum halepense, SORHA) (enter value)
OUTPUT: 10
